# Tested system: K-Ras G13C (Homo sapiens (Human), UniProt P01116+P62937, G13C)
# Sequence (P01116-2 other isoform, or with tags, fused parts or gaps G13C): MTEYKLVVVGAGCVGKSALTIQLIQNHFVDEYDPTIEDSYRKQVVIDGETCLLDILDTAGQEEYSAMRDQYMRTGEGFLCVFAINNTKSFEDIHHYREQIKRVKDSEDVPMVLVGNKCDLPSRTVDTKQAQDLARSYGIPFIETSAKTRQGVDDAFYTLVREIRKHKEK
# Sequence (P62937 whole entry): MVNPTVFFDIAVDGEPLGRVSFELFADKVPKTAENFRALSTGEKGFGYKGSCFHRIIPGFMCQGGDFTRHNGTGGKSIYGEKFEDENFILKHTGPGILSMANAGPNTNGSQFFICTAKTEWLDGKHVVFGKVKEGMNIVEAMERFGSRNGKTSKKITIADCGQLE
# Procedure summary: Ras-Raf (BRAF RBD) disruption / FRET / MOA assay, KRAS G13C
# Format: biochemical
# Setup conditions: KRAS G13C; Ras-Raf disruption/FRET/MOA assay; read-out: IC50* KRAS G13C FRET data
# Description: The purpose of this biochemical assay is to measure the ability of test compounds to facilitate ternary complex formation between a nucleotide-loaded Ras isoform and cyclophilin A; the resulting ternary complex disrupts binding to a BRAF^RBD construct, inhibiting Ras signaling through a RAF effector. Compound is present in plate wells as a 10-point 3-fold dilution series starting at a final concentration of 30 μM. […]
pIC50: −log10 of the molar value.
Kindly supply the reported pIC50 values for the records listed here.

Query: I have this compound here, CCn1c(-c2cccnc2COC)c2c3cc(ccc31)-c1cc(O)cc(c1)C[C@H](NC(=O)[C@H](C(C)C)N(C)C(=O)[C@H]1C[C@@H](C)N(C(=O)C#CCN(C)C)C1)C(=O)N1CCC[C@H](N1)C(=O)OCC(C)(C)C2 , and I need its recorded pIC50.
Response: > 8.00

Query: // lookup pIC50 for C=CC(=O)N1CCN(C(=O)N(C)[C@H](C(=O)N[C@H]2Cc3nc(cs3)-c3ccc4c(c3)c(c(-c3cccnc3[C@H](C)OC)n4CC)CC(C)(C)COC(=O)[C@@H]3CCCN(N3)C2=O)C(C)C)[C@@H](C)C1 (atropisomer, axis not shown)
Response: 7.00 to 8.00

Query: Entry C=CC(=O)N(C)CCN1CCN(C(=O)N(C)[C@H](C(=O)N[C@H]2Cc3cccc(c3)-c3ccc4c(c3)c(c(-c3cccnc3[C@H](C)OC)n4CC)CC(C)(C)COC(=O)[C@@H]3CCCN(N3)C2=O)C(C)C)C[C@H]1C (atropisomer, axis not shown) has what pIC50?
Response: 7.00 to 8.00

Query: Given C=C(F)C(=O)N1CC(N(C)C(=O)N(C)[C@H](C(=O)N[C@H]2Cc3nc(cs3)-c3ccc4c(c3)c(c(-c3cccnc3[C@H](C)OC)n4CC)CC(C)(C)COC(=O)[C@@H]3CCCN(N3)C2=O)C(C)C)C1 (atropisomer, axis not shown) , state its recorded pIC50.
Response: 6.00 to 7.00

Query: Need pIC50 of C=CC(=O)N1CC[C@H](C(=O)N(C)[C@H](C(=O)N[C@H]2Cc3cc(F)cc(c3)-c3ccc4c(c3)c(c(-c3cccnc3[C@H](C)OC)n4CC)CC(C)(C)COC(=O)[C@@H]3CCCN(N3)C2=O)C(C)C)C1 (atropisomer, axis not shown) , thanks.
Response: 6.00 to 7.00

Query: Fill blank: measured pIC50 of the compound CCn1c(-c2cccnc2[C@H](C)OC)c2c3cc(ccc31)-c1cc(CF)cc(c1)C[C@H](NC(=O)[C@H](C(C)C)N1CC[C@]3(CCN(C(=O)C#CC(C)(C)N(C)C)C3)C1=O)C(=O)N1CCC[C@H](N1)C(=O)OCC(C)(C)C2 (atropisomer, axis not shown) is ____.
Response: 6.00 to 7.00

Query: What value of measured pIC50 is listed for C=CC(=O)N1CCN(C(=O)N(C)[C@H](C(=O)N[C@H]2Cc3nc(cs3)-c3ccc4c(c3)c(c(-c3cccnc3[C@H](C)OC)n4CC(F)(F)F)CC(C)(C)COC(=O)[C@@H]3CCCN(N3)C2=O)C(C)C)CC12CC2 (atropisomer, axis not shown) ?
Response: 7.00 to 8.00

Query: State the recorded pIC50 for this entry: CCn1c(-c2ccccc2CN(C)C)c2c3cc(ccc31)-c1cc(O)cc(c1)C[C@H](NC(=O)[C@H](C(C)C)N(C)C(=O)c1ncc(NC(=O)/C=C/CN(C)C)n1C)C(=O)N1CCC[C@H](N1)C(=O)OCC(C)(C)C2
Response: 7.00 to 8.00

Query: Fill in: pIC50 of CCn1c(-c2cccnc2[C@H](C)OC)c2c3cc(ccc31)-c1cc(O)cc(c1)C[C@H](NC(=O)[C@H](C(C)C)N(C)C(=O)[C@H]1CCN(C(=O)C#CCOC)C1)C(=O)N1CCC[C@H](N1)C(=O)OCC(C)(C)C2 is ___
Response: 7.00 to 8.00

Query: Could you tell me which pIC50 is on file for CO[C@@H](C)c1ncccc1-c1c2c3cc(ccc3n1CC(F)(F)F)-c1cc(cc(C(F)F)c1)C[C@H](NC(=O)[C@@H](COC1CN(C(=O)C#CC(C)(C)N(C)C)C1)C(C)C)C(=O)N1CCC[C@H](N1)C(=O)OCC(C)(C)C2 (atropisomer, axis not shown) ?
Response: < 5.00

Query: Consider the compound shown here: C=CC(=O)N1CC[C@H](C(=O)N(C)[C@H](C(=O)N[C@H]2Cc3cc(O)cc(c3)-c3ccc4c(c3)c(c(-c3csc(N(C)C)n3)n4CC)CC(C)(C)COC(=O)[C@@H]3CCCN(N3)C2=O)C(C)C)C1 What is its recorded pIC50?
Response: < 5.00

Query: What measured pIC50 goes with C=CC(=O)N1CC[C@H](C(=O)N(C)[C@H](C(=O)N[C@H]2Cc3cccc(c3F)-c3ccc4c(c3)c(c(-c3cccnc3[C@H](C)OC)n4CC)CC(C)(C)COC(=O)[C@@H]3CCCN(N3)C2=O)C(C)C)C1 (atropisomer, axis not shown) ?
Response: 5.00 to 6.00

Query: Could you tell me which pIC50 is on file for C=CC(=O)N1CC[C@H](C(=O)N(C)[C@H](C(=O)NN2Cc3cc(O)cc(c3)-c3ccc4c(c3)c(c(-c3cccnc3[C@H](C)OC)n4CC)CC(C)(C)COC(=O)[C@@H]3CCCN(N3)C2=O)C(C)C)C1 (atropisomer, axis not shown) ?
Response: 7.00 to 8.00

Query: Which pIC50 value is on record for CCn1c(-c2cccnc2[C@H](C)OC)c2c3cc(ccc31)-c1cc(O)cc(c1)C[C@H](NC(=O)[C@H](C(C)C)N(C)C(=O)[C@H]1CCN(C(=O)C#CCN3[C@H](C)COC[C@@H]3C)C1)C(=O)N1CCC[C@H](N1)C(=O)OCC(C)(C)C2 (atropisomer, axis not shown) ?
Response: 7.00 to 8.00

Query: Please report the recorded pIC50 for CO[C@@H](C)c1ncccc1-c1c2c3cc(ccc3n1CC(F)(F)F)-c1csc(n1)C[C@H](NC(=O)[C@H](C(C)C)N(C)C(=O)N1C[C@@H]3OCCN(C(=O)/C=C/CF)[C@@H]3C1)C(=O)N1CCC[C@H](N1)C(=O)OCC(C)(C)C2 (atropisomer, axis not shown) .
Response: 7.00 to 8.00
